# SYSTEM_TESTED: prejunctional GABAB receptors (Cavia porcellus)
# Sequence (A0A286X9P6 30-844): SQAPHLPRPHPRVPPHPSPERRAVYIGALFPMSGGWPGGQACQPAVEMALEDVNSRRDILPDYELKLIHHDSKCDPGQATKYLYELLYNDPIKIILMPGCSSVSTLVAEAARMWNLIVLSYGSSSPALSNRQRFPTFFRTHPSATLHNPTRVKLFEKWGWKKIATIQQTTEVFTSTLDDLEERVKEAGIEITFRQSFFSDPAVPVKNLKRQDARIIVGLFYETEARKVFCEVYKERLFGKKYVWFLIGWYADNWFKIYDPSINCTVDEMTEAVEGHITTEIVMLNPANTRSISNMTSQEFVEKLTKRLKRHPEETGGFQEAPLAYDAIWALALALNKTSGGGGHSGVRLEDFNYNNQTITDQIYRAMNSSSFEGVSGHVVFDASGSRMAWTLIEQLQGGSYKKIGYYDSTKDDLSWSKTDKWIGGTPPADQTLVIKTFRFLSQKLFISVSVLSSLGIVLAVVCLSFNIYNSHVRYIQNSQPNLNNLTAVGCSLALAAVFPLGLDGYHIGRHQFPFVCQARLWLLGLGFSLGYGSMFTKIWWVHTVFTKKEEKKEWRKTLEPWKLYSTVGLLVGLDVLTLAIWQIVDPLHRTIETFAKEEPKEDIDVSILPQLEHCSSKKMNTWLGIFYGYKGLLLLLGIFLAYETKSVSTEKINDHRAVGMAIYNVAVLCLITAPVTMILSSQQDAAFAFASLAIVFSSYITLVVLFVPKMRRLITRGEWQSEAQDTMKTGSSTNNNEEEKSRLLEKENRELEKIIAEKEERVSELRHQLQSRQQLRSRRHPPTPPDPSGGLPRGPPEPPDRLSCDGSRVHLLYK
# Sequence (H0V741 1-820 partner): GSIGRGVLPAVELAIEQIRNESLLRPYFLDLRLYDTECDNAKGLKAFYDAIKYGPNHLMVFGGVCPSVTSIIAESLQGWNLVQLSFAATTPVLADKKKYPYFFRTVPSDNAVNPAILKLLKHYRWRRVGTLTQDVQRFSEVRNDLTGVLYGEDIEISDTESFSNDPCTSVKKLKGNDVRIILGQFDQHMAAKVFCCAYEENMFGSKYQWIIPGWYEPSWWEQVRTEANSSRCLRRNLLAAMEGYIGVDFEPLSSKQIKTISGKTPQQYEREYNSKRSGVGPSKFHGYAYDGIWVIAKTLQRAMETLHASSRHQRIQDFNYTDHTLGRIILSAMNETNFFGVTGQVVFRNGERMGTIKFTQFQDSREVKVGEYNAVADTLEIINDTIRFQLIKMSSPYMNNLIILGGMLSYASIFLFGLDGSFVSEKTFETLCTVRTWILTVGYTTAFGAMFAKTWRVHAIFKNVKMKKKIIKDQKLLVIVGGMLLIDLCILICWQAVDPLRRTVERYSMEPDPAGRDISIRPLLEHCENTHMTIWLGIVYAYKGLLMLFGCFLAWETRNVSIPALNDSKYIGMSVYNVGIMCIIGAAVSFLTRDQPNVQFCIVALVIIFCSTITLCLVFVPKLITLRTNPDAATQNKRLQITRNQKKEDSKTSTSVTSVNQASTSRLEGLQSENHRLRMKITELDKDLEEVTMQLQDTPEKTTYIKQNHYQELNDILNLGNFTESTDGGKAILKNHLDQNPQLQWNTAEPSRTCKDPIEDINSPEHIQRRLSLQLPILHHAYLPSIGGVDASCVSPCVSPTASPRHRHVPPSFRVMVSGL
# METHOD_NOTES: In Vitro Assay (guinea pig trachea, reversal of baclofen inhibition of EFS-induced contractions)
# Format: cell-based, guinea pig (male Hartley)
# SETUP_CONDITIONS: 30 μmol/L baclofen, guinea pig trachea
So basically: IC30 at 2000 nM or higher? That is yes (1). Lower than 2000 nM? That is no (0).

>>> group_label("CP(=O)(O)CC1CNC2(CCCC2)CO1 (centres unmarked)")
"yes (1)"
>>> group_label("CC1(C)COC(CP(C)(=O)O)CN1 (centres unmarked)")
"no (0)"
>>> group_label("C[C@@]1(CO)CO[C@@H](CC(=O)O)CN1 (relative stereo) [Example 21]")
"no (0)"
>>> group_label("CC1(C)COC(CC(=O)O)CN1 (single isomer, unassigned) [Example 6A]")
"no (0)"
>>> group_label("CC1(C)COC(CC(=O)O)CN1 (centres unmarked) [Example 2]")
"no (0)"

====

# SYSTEM_TESTED: prejunctional GABAB receptors (Cavia porcellus)
# METHOD_NOTES: In Vitro Assay (guinea pig trachea, reversal of baclofen inhibition of EFS-induced contractions)
# Type: cell-based, guinea pig (male Hartley)
# SETUP_CONDITIONS: 100 μM; 30 μmol/L baclofen
So basically: inhibition at 100 µM at 80% or higher? That is Met. Lower than 80%? That is Not met.

>>> group_label("CP(=O)(O)CC1CNCCO1 (stereo not drawn)")
"Met"
>>> group_label("CC1CNCC(CC(=O)O)S1 (stereo not drawn)")
"Not met"
>>> group_label("CC[C@]1(CO)CO[C@@H](CC(=O)O)CN1 (relative stereo)")
"Not met"
>>> group_label("CC1(C)COC(CC(=O)O)CN1 (stereo not drawn)")
"Met"
>>> group_label("O=C(O)CC1CNCCO1 (stereo not drawn)")
"Not met"
>>> group_label("CP(=O)(O)CC1CN(Cc2ccccc2)CCO1 (stereo not drawn)")
"Not met"
>>> group_label("C[C@@H]1CO[C@@H](CC(=O)O)CN1 (relative stereo) [Example 14A]")
"Not met"
>>> group_label("O=C(O)CC1CNCCS1 (stereo not drawn)")
"Not met"
>>> group_label("O=C(O)CC1CNC2(CCCC2)CO1 (stereo not drawn)")
"Met"
>>> group_label("CC[C@H]1CO[C@H](CC(=O)O)CN1")
"Not met"
>>> group_label("CC1(C)COC(CP(C)(=O)O)CN1 (stereo not drawn)")
"Met"
>>> group_label("C[C@H]1CS[C@@H](CC(=O)O)CN1 (relative stereo) [Example 13B]")
"Not met"
>>> group_label("C[C@H]1CO[C@@H](CC(=O)O)CN1 (relative stereo)")
"Not met"
>>> group_label("CC[C@@]1(CO)CO[C@@H](CC(=O)O)CN1 (relative stereo)")
"Met"
>>> group_label("O=C(O)CC1CNC2(CC2)CO1 (stereo not drawn)")
"Not met"
>>> group_label("CC[C@@H]1CO[C@H](CC(=O)O)CN1")
"Not met"

====

# SYSTEM_TESTED: GABAB receptors (Rattus norvegicus)
# Construct: Rat brain synaptosomes are used as a source of GABAB receptors; from tissue; host or cells: rat brain synaptosomes
# Sequence (Q9Z0U4 17-960 limits assumed): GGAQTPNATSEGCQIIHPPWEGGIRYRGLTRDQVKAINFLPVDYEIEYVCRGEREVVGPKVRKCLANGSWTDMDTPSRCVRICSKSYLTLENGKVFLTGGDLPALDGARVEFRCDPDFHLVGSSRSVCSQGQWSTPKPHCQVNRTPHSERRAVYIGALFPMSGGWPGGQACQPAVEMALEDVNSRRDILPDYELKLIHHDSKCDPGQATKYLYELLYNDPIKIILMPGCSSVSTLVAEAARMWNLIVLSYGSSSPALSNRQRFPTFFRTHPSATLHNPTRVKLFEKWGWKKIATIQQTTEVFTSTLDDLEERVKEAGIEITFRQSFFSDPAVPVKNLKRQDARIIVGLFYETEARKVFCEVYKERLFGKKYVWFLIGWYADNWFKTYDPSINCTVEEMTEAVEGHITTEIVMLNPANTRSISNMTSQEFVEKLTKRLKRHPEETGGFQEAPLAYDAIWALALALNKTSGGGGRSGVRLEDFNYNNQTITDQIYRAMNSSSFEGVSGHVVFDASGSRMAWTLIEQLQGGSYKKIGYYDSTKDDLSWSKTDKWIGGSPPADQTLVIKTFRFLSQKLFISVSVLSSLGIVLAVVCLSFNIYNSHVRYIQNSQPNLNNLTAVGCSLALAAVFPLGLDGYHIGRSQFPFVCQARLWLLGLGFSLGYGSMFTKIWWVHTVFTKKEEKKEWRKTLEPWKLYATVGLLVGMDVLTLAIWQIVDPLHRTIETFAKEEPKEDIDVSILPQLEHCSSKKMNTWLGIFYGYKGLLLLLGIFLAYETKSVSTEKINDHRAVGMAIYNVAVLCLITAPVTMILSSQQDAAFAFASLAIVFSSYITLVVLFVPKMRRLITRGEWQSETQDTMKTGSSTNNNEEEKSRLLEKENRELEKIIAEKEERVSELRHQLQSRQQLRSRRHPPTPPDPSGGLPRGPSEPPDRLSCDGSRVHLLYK
# Sequence (O88871 41-940 partner): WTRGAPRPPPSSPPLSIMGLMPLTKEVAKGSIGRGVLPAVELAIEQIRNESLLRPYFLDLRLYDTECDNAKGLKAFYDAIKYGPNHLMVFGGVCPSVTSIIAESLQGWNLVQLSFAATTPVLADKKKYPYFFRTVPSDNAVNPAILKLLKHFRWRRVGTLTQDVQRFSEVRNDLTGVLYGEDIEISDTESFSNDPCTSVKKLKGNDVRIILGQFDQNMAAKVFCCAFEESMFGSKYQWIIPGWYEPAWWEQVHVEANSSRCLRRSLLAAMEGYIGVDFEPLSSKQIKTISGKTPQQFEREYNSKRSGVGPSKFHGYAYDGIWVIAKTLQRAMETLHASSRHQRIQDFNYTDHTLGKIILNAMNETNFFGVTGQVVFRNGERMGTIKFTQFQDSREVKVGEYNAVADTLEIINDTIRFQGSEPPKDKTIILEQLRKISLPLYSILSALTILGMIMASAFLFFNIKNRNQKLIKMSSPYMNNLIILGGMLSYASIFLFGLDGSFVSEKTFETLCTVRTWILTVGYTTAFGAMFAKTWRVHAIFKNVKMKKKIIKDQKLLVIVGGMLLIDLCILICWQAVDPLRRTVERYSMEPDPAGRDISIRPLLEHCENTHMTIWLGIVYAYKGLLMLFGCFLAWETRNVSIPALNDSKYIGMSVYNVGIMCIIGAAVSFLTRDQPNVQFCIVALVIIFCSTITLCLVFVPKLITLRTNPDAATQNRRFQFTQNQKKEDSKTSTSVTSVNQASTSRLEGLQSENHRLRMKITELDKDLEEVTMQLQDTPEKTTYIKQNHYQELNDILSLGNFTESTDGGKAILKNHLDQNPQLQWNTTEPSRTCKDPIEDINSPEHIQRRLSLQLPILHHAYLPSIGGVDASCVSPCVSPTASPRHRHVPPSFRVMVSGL
# METHOD_NOTES: GABAB Receptor Binding Assay ([3H]GABA, rat brain synaptosomes)
# SETUP_CONDITIONS: unit inferred
pIC50: −log10 of the molar value.
MEASUREMENT_NAME: pIC50

>>> result("O=C(O)CC1CNCCS1 (stereo not shown)")
"< 4.00"

Measured values drawn from patent US5929236A for this set.
